system_tested: human ether-à-go-go-related gene (hERG) potassium channel (human, UniProt Q12809);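 further: peak tail current of the secondary pulse compared with the same well before compound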
Sequence (Q12809 whole entry, looked up): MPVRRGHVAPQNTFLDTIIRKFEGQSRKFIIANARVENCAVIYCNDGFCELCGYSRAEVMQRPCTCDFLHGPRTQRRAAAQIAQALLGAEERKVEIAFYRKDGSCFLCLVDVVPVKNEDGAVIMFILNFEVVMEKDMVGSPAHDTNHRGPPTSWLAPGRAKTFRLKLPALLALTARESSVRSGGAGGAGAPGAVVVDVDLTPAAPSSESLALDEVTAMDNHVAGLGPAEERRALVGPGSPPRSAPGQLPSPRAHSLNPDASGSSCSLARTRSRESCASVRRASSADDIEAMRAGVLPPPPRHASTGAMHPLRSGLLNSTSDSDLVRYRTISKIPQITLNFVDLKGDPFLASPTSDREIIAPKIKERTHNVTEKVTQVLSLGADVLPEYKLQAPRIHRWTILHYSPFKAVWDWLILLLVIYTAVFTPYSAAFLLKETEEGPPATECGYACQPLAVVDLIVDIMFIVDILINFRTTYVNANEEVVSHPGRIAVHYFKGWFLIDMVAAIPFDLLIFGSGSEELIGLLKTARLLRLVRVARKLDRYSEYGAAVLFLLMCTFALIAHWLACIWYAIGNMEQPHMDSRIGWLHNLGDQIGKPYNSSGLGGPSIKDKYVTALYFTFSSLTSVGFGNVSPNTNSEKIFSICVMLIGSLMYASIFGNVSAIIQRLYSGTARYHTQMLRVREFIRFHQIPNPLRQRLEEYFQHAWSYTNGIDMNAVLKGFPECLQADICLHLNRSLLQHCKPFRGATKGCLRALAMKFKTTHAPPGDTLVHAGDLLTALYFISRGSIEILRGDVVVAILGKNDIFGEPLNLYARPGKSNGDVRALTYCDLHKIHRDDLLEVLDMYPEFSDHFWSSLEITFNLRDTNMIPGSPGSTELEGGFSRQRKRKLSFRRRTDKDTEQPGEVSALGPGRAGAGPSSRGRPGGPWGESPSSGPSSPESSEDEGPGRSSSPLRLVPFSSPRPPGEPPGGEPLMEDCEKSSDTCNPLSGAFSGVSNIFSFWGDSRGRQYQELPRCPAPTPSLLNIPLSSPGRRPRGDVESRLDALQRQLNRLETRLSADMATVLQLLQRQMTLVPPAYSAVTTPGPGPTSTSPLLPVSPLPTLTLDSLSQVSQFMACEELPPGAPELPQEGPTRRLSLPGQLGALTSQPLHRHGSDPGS
assay_name: primary screen, population patch clamp on CHO cells stably expressing hERG; higher = less effect of the substance
Screen size: about 310,000 compounds; about 14,000 (4.5%) showed an effect of 50% or more. The effect is printed as a negative number. This excerpt belongs to a sample that is enriched for strong results.
Listed next: entries and their corresponding hERG current change (%, negative = inhibition) at 10uM.

Example results:
Record `CCCCOc1ccccc1C(=O)NNC(=S)NC(=O)c1ccccc1[N+](=O)[O-]` : what is its hERG current change (%, negative = inhibition) at 10uM with human ether-à-go-go-related gene (hERG) potassium channel (human, UniProt Q12809)?
3.48%

Next compound up: `Cc1cccc(CN2C(=O)[C@H]3Cc4c([nH]c5ccccc45)C(C)(C)N3C2=O)c1`
-1.56%

Next compound up: `Cc1cccc(-n2ncc3c(NCc4ccccc4)ncnc32)c1`
12%

Next compound up: `OCCCNc1ncnc2oc(-c3ccccc3)c(-c3ccccc3)c12`
-13.2%

Next compound up: `Cc1ccc(NCC(=O)N=Nc2c(O)[nH]c3ccc([N+](=O)[O-])cc23)cc1`
-5.06%

More entries:
Record `O=C(COc1ccc(Cl)cc1)Nc1ccc2oc(=O)ccc2c1` : what is its hERG current change (%, negative = inhibition) at 10uM with human ether-à-go-go-related gene (hERG) potassium channel (human, UniProt Q12809)?
3.7%

Next compound up: `Cc1nc2ncnn2c(C)c1CCC(=O)NCc1ccco1`
-6.62%

Next compound up: `OCCCNc1ncnc2sc(-c3ccccc3)cc12`
3.23%

Next compound up: `NC(=O)c1ccsc1NC(=O)c1cccs1`
-13.6%

Next compound up: `CN(C)CCNc1ncnc2ccccc12.Cl`
7.66%

Source listed as paper PMC4336329.
